Tested on: MS2 coat protein
Test: apparent KD of MS2 coat protein; designed switch direction (-1 OFF switch, 1 ON switch): 1; higher = weaker reporter binding
Details: input ligand: none
measurement.kind: apparent KD of MS2 coat protein (nM)

INSERT INTO assay_data (sequence_string, result_value) VALUES
  ('GUUACAUGAGGAUCACCCAUGUGUGUGUGGGAGUGAGUGGCUUAGGAUAUCUAUGAUUUUAGUUAAGAGAAGGAGGAUUGCUGU [SS-NG3-LRO07] (Eterna round: R96, puzzle: Same State NG 3)', 414),
  ('CUAUCUACAGGUUGCAGUGCUCGUCUUAUACAUGAGGAUCACCCAUGUUAUAGCCCGGUGCUUGCGCUGGGCUGAUU [JL ViennaUCT Tearor mod 2] (Eterna round: R96, puzzle: Sensor for hsa-mir-208a)', 41.1);

* * *

System: MS2 coat protein
Assay: apparent KD of MS2 coat protein; designed switch direction (-1 OFF switch, 1 ON switch): 1; higher = weaker reporter binding
Conditions: Eterna round: R95; input ligand: none
measurement.kind: apparent KD of MS2 coat protein (nM)

INSERT INTO assay_data (sequence_string, display_unit, result_value) VALUES
  ('CGUCCGGCCUGAGCUGGUCGGAAGCAUGUACAUGAGGAUCACCCAUGUUCAUGUGCAGGCUUUUUGCUCGUCUUGUG [salish99_mir208a_modof_jandersonlee_004] (puzzle: Sensor for hsa-mir-208a)', 'nM', 39.6),
  ('UACAAUCUAUCUGAGGAUAUCAUGAUCAUAACAUGAGGAUCACCCAUGUGCAGGAAAACUGCAUAUGAGAAGGCAGAUAGAUUGU [salish99_ss2_r3_073] (puzzle: Same State 2)', 'nM', 863),
  ('UCUUGGUUUUUGCUCGUUUUUUGUGUUGAACAUGAGGAUCACCCAUGUAUUGUACAGUCCAGUUUGAUAAUGGUCCG [JMF 56] (puzzle: Sensor for hsa-mir-208a)', 'nM', 44.3),
  ('AACAAUCUAUCUGAGGAUAUCAUGAAAUAAACAUGAGGAUCACCCAUGUGUAGGAAAACUGCAUAUGAGAAGGCAGAUAGAUUGA [salish99_ss2_r3_036] (puzzle: Same State 2)', 'nM', 1330),
  ('CAGCGCUGUCGAGAGGAUAUGCGGUGAUGGACAUGAGGAUCACCCAUGUUAGCGACAGCAUCACGGCAGAAGGCUCUACCGCCUG [Soteed Omei mod 43] (puzzle: Same State 2)', 'nM', 32.3);

* * *

Test system: K4 kissing-loop RNA reporter;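 note: bound reporter read as fluorescence of individual clusters on recovered sequencing chips by microscopy, with normalized cluster intensities fitted with a binding model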
Assay: apparent KD of K4 kissing-loop reporter; higher = weaker reporter binding
Details: Eterna round: R107; input ligand: none
apparent KD of K4 kissing-loop reporter values, listed per item
measurement.kind: apparent KD of K4 kissing-loop reporter (nM)

INSERT INTO results (sequence_string, target_or_test_system, measurement_kind, display_unit, result_value) VALUES
  ('CGAGAAAGAGCGACUGGCGAUCUGUCUGAAGGAGCGGGUGCUAGCCCAGGUAGGUCGCAGACUUUGACGCCAGUGAUGUUGGCGG [Titidiisxe]', 'K4 kissing-loop RNA reporter', 'apparent KD of K4 kissing-loop reporter', 'nM', 222),
  ('UGAUAGGACAGAAGGAGCGGUAGUGAUGUUGCCAAAAGUAUAAGGUGUCAAAAGACACCCUACCAGGUAGGUCGCUGUCCUAUCU', 'K4 kissing-loop RNA reporter', 'apparent KD of K4 kissing-loop reporter', 'nM', 354),
  ('UUCGAAAGUCGAAGGAGCGCUGUCGGUCAUAGACCAUAUCUGUAGUGAUGUUACAGAUGACAGCAGGUAGGUCGCGACAGAGACA [Arg B SS t18]', 'K4 kissing-loop RNA reporter', 'apparent KD of K4 kissing-loop reporter', 'nM', 127),
  ('GCGCGUCAUGUCAGCGGUGACUCUGUCGAUACCAGCGCCGCAAGGCGCCCUUGGCAGCGACGCGCUGGAGUGAUGUUCCAGCGUG [#2 Exclusion - Theophylline A Attempt #13 (HarryS)]', 'K4 kissing-loop RNA reporter', 'apparent KD of K4 kissing-loop reporter', 'nM', 160),
  ('ACACUAUCGUCAUAGACGGUAGUGAAAUGUGAGGAUAUGAGUGAUGUUAGAAGGCACAAAGACUGUAUCGAAUAGAUACAGUCAA [FmnA 6 #K4BetweenAptamer #OpenEnded]', 'K4 kissing-loop RNA reporter', 'apparent KD of K4 kissing-loop reporter', 'nM', 139),
  ('CACGAUGAAUUCUCUAGGAGUGAUGUUUUUCGAGGACCGGUACGGCCGCCACUCGGACGACGAGCGUGGUAGCGGCCUGAAGACU [,omullin]', 'K4 kissing-loop RNA reporter', 'apparent KD of K4 kissing-loop reporter', 'nM', 468),
  ('GACAGCCGGUCGGCCGCCACUUGGAGUGAUGUUCCGCGCGGCGGGCGCCGGAGGGCGUUAAGCCCAAGGACCGGGACCGGUAACG [Celeso]', 'K4 kissing-loop RNA reporter', 'apparent KD of K4 kissing-loop reporter', 'nM', 92.9),
  ('UUGGCUGGACGGGAUACCAGCCAAAUCGUGGGCUUGGGAUGUCUAAGAGCCAGUGAUGUUGGCCCUUGGCAGCCCUCCCAGCUUG [Xerirala]', 'K4 kissing-loop RNA reporter', 'apparent KD of K4 kissing-loop reporter', 'nM', 95.9),
  ('UGGAUAUAGUGAUGUUAUAUAGAGAUGGAUACCAGCUAAGAGAAUAGCCCUUGGCAGCCGAAAGAAGUAUCAUUAGAGAAGAAUG [ExTheophyl.Ae]', 'K4 kissing-loop RNA reporter', 'apparent KD of K4 kissing-loop reporter', 'nM', 280),
  ('CGCCGUAAGGCGAGCGCUCCCACUCCGGAAGGAGCGCCCGAAAGGGCAGGUAGGUCGCCGGAGUGAUGUUCCGGUGGAGGGCUCG [#2 Exclusion - Arginine A Attempt #28 (Inspired by Omei)]', 'K4 kissing-loop RNA reporter', 'apparent KD of K4 kissing-loop reporter', 'nM', 380),
  ('CAUAGACAAGUGAUGUUUGUCAUAACCGAAGGAGCGUCUUUAAAGACAGGUAGGUCGCGGAUUAAUUAAGUUAUUAUUCUUUUUA [JR_SSArginiA_Sub018]', 'K4 kissing-loop RNA reporter', 'apparent KD of K4 kissing-loop reporter', 'nM', 644),
  ('GCCAGUGCACGAAGGAGCGCCGUGACAGGUUACUGCCUUGGGCAGUGAUGUUGCUCAAUCUGGCAGGUAGGUCGCGUGCACUGGC', 'K4 kissing-loop RNA reporter', 'apparent KD of K4 kissing-loop reporter', 'nM', 170);
